measurementTarget: ApoE (Macaca mulatta, UniProt Q28502)
Construct: from tissue; host or cells: rhesus serum
procedureDetails: In vitro ApoE binding assay (anti-PEG capture, ApoE ELISA, stem-loop RT-PCR)
details: LNP 4 ug/mL in 90% rhesus serum, 37° C., 20 minutes; estimate of 500 siRNA per LNP
metricName: ApoE Molecules/LNP (Molecules/LNP)

Consider the reported ApoE Molecules/LNP for these molecules:
CCCCCCCC/C=C\CCCCCCCCCCCC(CCCCCCCCC)N(C)C (stereo not shown)	38
CCCCCCCCCC(CCCCCCCCC[C@H]1C[C@H]1CCCCCC)N(C)C (stereo partly shown)	2.3
CCCCCCCC/C=C\CCCCCCCCCC(CCCCCCCCC)N(C)C (stereo not shown) [Compound 28, (20Z)—N,N-dimethylnonacos-20-en-10-amine]	4.7

[1] CCCCC/C=C\C/C=C\CCCCCCCCCCCC(CCCCCCCC)N(C)C (stereo not shown)
[2] CCCCCCCCCCC/C=C\CCCCC(CCCCCCCCC)N(C)C (stereo not shown)
[3] CCCCC/C=C\C/C=C\CCCCCCCCC1(CCCCCCCC/C=C\C/C=C\CCCCC)OCC(CCN(C)C)O1 (stereo not shown) [Compound 45, DLinKC2DMA, reference compound]
[4] CCCCC/C=C\C/C=C\CCCCCCCC(CCCCCCCCC)N(C)C (stereo not shown)
[5] CCCCCCCCCCCCCC/C=C\CCCC(CCCCCCCCC)N(C)C (stereo not shown) [Compound 25, (14Z)—N,N-dimethylnonacos-14-en-10-amine]
// query Sequence the entries by ApoE Molecules/LNP, beginning with the highest number. Sort the labels as requested; that list is your answer.
// result 3, 5, 4, 1, 2
(3: 32.5 Molecules/LNP, 5: 13.7 Molecules/LNP, 4: 4.9 Molecules/LNP, 1: 3.3 Molecules/LNP, 2: 1.2 Molecules/LNP)

---

measurementTarget: serum ApoE (Macaca mulatta, UniProt Q28502)
Construct: from tissue; host or cells: rhesus monkey serum
Sequence (Q28502 19-295): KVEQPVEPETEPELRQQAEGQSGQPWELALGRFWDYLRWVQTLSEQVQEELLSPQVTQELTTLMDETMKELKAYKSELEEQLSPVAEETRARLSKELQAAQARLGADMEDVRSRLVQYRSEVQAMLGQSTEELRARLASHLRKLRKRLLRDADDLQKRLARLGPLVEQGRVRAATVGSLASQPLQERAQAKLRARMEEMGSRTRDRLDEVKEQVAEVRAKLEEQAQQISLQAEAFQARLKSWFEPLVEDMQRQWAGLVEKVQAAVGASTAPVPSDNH
procedureDetails: Heparin Sepharose HI-TRAP binding assay
Design: species or system rhesus monkey
details: HI-TRAP binding upon rhesus serum incubation, 2×DPBS conditions
metricName: % Bound (%)

CCCCC/C=C\C/C=C\CCCCCCCCCC(CCCCCCCCC)CCN(C)C (stereo not shown)	100

[I] CCCCC/C=C\C/C=C\CCCCCCCCC1(CCCCCCCC/C=C\C/C=C\CCCCC)OCC(CCN(C)C)O1 (stereo not shown) [Compound 45, DLinKC2DMA, reference compound]
[II] CCCCC/C=C\C/C=C\CCCCCCCCC(CCCCCCCC/C=C\C/C=C\CCCCC)OC(=O)CCCN(C)C [Compound 46, MC3, reference compound]
// query // compare measured % Bound between I and II ; output the lower one In your reply, give the label of the chosen option.
// result II
(II: 7%, I: 58%)
